The origin of these recorded values is paper PMC11551761.

# MEASUREMENT_TARGET: LIG1 C-terminal (human, UniProt P18858 261-919, del1-260)
# Sequence (P18858 261-919, stated change not applied): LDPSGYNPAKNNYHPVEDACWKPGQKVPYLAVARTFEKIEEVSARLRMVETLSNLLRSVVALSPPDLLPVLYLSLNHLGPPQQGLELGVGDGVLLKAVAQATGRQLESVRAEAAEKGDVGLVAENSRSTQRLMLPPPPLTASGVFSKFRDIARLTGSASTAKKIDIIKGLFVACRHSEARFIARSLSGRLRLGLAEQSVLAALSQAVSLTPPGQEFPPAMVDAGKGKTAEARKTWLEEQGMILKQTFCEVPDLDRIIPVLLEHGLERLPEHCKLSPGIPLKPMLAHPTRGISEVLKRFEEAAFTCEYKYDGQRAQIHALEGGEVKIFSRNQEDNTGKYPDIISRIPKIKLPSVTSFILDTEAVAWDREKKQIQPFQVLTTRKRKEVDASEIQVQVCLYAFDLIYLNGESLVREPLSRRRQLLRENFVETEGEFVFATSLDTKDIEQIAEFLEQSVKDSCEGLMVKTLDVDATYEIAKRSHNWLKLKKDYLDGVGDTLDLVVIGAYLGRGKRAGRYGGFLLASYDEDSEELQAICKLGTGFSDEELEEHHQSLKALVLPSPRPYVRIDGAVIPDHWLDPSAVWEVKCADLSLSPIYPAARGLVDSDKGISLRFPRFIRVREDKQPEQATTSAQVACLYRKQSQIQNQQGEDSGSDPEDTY
# TEST_DESCRIPTION: BLI; no Mg2+ listed in buffer; 1 mM HEPES pH 7.4, 20 mM NaCl, 0.02% BSA, 0.002% Tween 20 (BLI, C-Trap, TIRF; TIRF plus oxygen scavenger and 10 mM Trolox); BLI sensors hydrated at 20 C, assay
# TEST_CONTEXT: protein: recombinant; tags: 6xHis (pET-24b); AF488 or Cy5 labelled for single-molecule assays; Methods says 3'); nicked duplex
MEASUREMENT_NAME: pKd
Keep it numeric: pKd is minus log10 of the concentration in mol/L.

Could you tell me which pKd is on file for nick DNA 3'-dG:C/5'-Bio (BLI) (dsDNA, single nick) DNA 1: CATGGGCGGCATGAACCGGAGGCCCATCCTCACC DNA 2: GGTGAGGATGGGCCTCCGGTTCATGCCGCCCATG ?
6.71
